Origin of the recorded values: patent US9695155B2

Assign Plant response rating, Barnyardgrass to each entry below.
# System: barnyardgrass
# assay-text: Test A postemergence
# Type: in vivo, Echinochloa crus-galli
# measurement-conditions: 500 g ai/ha, 0 to 100 scale where 0 is no effect and 100 is complete control
Number only, no unit.

Quick check: Plant response rating, Barnyardgrass of N#Cc1cnn(-c2c(Oc3ncc(F)cn3)cccc2C(F)F)c1 [Compound 240] ?
100

Look up Plant response rating, Barnyardgrass for this compound: Fc1cc(Oc2ncc(Cl)cn2)c(-n2cc(Br)cn2)cc1F [Compound 196]
50

Look up Plant response rating, Barnyardgrass: O=Cc1cccc(Oc2ncc(Br)cn2)c1-n1cc(Cl)cn1 [Compound 206]
0

Item N#Cc1cnn(-c2c(C#N)cccc2Oc2ncc(Br)cn2)c1 [Compound 135] has what recorded Plant response rating, Barnyardgrass?
100

// returns reported Plant response rating, Barnyardgrass for input Cc1cnc(Oc2cccc(C#N)c2-n2cc(C#N)cn2)nc1 [Compound 90]
100

Any idea what its Plant response rating, Barnyardgrass is? The compound is CC(C)c1cnc(Oc2cccc(C#N)c2-n2cc(Br)cn2)nc1 [Compound 130]
0

* * *

# Test system: pigweed
# assay-text: Test A preemergence
# Assay type: in vivo, Amaranthus retroflexus
# measurement-conditions: 125 g ai/ha
parameter-measured: Pigweed plant response rating (0 to 100 scale)
Response field accepts a number only; no unit should be typed.

So what's the measured Pigweed plant response rating (0 to 100 scale) for this one? FC(F)c1cccc(Oc2ncc(Cl)cn2)c1-n1cc(Cl)cn1
100

I have this compound here, O=Cc1cccc(Oc2ncc(Br)cn2)c1-n1cc(Br)cn1 , and I need its recorded Pigweed plant response rating (0 to 100 scale).
0

Find the recorded Pigweed plant response rating (0 to 100 scale) belonging to Clc1cnc(Oc2cccc(Cl)c2-n2cc(I)cn2)nc1 and report it.
100

Which measured Pigweed plant response rating (0 to 100 scale) value corresponds to N#Cc1cccc(Oc2ncc(Cl)cn2)c1-n1cc(OCC(F)(F)F)cn1 ?
100

# input compound: Clc1cnc(Oc2cccc(-c3cnoc3)c2-n2cc(Br)cn2)nc1 ; wanted: its Pigweed plant response rating (0 to 100 scale)
60

Given FC(F)Oc1cnn(-c2c(Cl)cccc2Oc2ncc(Cl)cn2)c1 , state its recorded Pigweed plant response rating (0 to 100 scale).
100

* * *

Please go through the items and note down their Plant response rating, Pigweed.
# Test system: pigweed
# assay-text: Test A postemergence
# Assay type: in vivo, Amaranthus retroflexus
# measurement-conditions: 500 g ai/ha, 0 to 100 scale where 0 is no effect and 100 is complete control
Give only the figure.

Requested field: Plant response rating, Pigweed. Item: NN=Cc1cccc(Oc2ncc(Cl)cn2)c1-n1cc(Cl)cn1
70

Looking for the measured Plant response rating, Pigweed of N#Cc1cccc(Oc2ncc(Cl)cn2)c1-n1cc(OC(F)F)cn1 , can you help?
100

Recorded Plant response rating, Pigweed of FC(F)c1cccc(Oc2ncc(Br)cn2)c1-n1cc(Cl)cn1 , please.
100

Which Plant response rating, Pigweed value is on record for COc1cnc(Oc2ccccc2-n2cccn2)nc1 ?
60

* * *

# Test system: Heteranthera limosa
# assay-text: Test B flooded paddy test
# Assay type: in vivo
# measurement-conditions: Flood, 250 g ai/ha; 0 to 100 scale where 0 is no effect and 100 is complete control
Returns 1.0 if the recorded Plant response rating, Ducksalad is greater than or equal to 30, and 0.0 otherwise.

Hi, just wondering whether Cc1cccc(Oc2ncc(Cl)cn2)c1-n1cc(Br)cn1 [Compound 44] shows Plant response rating, Ducksalad of 30 or higher.
1.0

Does the reported Plant response rating, Ducksalad for FC(F)(F)COc1cccc(Oc2ncc(Cl)cn2)c1-n1cc(Br)cn1 [Compound 69] fall at or above the 30 mark?
0.0

In plain terms: is recorded Plant response rating, Ducksalad at least 30 for Cc1cnc(Oc2cccc(C#N)c2-n2cc(Br)cn2)nc1 [Compound 76] ?
1.0

Determine whether this molecule has Plant response rating, Ducksalad no lower than 30: N#Cc1cnn(-c2c(Cl)cccc2Oc2ncc(Cl)cn2)c1 [Compound 144]
1.0

Check if Plant response rating, Ducksalad >= 30 (inclusive). Item: FC(F)c1cccc(Oc2ncc(Br)cn2)c1-n1cc(C(F)(F)F)cn1 [Compound 163]
1.0

Entry FC(F)Oc1cnn(-c2ccccc2Oc2ncc(Cl)cn2)c1 [Compound 98] : is its Plant response rating, Ducksalad no less than 30?
1.0

State whether the measured Plant response rating, Ducksalad reaches 30, counting equality as reaching it, for Fc1cnc(Oc2cccc(Cl)c2-n2cc(OC(F)F)cn2)nc1 [Compound 101]
0.0

Kindly determine if Plant response rating, Ducksalad recorded for COC(=O)c1cccc(Oc2ncc(Cl)cn2)c1-n1cc(Br)cn1 [Compound 211] is above or exactly 30.
0.0

Does the reported Plant response rating, Ducksalad for CCCOc1cnn(-c2c(F)cccc2Oc2ncc(Cl)cn2)c1 [Compound 127] fall at or above the 30 mark?
1.0

API: above_or_equal(metric=Plant response rating, Ducksalad, cutoff=30) for item CC(F)c1cccc(Oc2ncc(Cl)cn2)c1-n1cc(Br)cn1 (centres unmarked) [Compound 146]
1.0

Hi team, for COc1cnc(Oc2ccccc2-n2cc(Br)cn2)nc1 [Compound 234] , is the recorded Plant response rating, Ducksalad at or above 30?
1.0

// inclusive: Plant response rating, Ducksalad at least 30? input: CC(=O)Oc1cccc(Oc2ncc(Cl)cn2)c1-n1cc(Cl)cn1 [Compound 216]
0.0

Exam item: decide whether the reported Plant response rating, Ducksalad for Clc1cnc(Oc2ccccc2-n2cc(-c3ccccn3)cn2)nc1 [Compound 190] is at least 30.
0.0
